Reported Herbicidal rating CYPIR values for the following molecules.
Test system: CYPIR (Rice Flatsedge)
Test Description: Postemergence weed control under flooded paddy conditions
Format: in vivo, Cyperus iria
Conditions: Rate 0.1250 kg/ha, postemergence weeds, rated 3 to 4 weeks after treatment

Molecule	Herbicidal rating CYPIR
C[C@@H](C(=O)OC(C)(C)C)N1C(=O)CSC1=Nc1cc(-n2c(=O)cc(C(F)(F)F)n(C)c2=O)c(F)cc1Cl [Compound 75]	6.0
CN1C(=O)C(CC(=O)Nc2ccccc2)SC1=Nc1cc(-n2c(=O)cc(C(F)(F)F)n(C)c2=O)c(F)cc1Cl (stereo not drawn) [Compound 91]	0.0
CC(C)S(=O)(=O)NC(=O)CC1SC(=Nc2cc(-n3c(=O)cc(C(F)(F)F)n(C)c3=O)c(F)cc2Cl)N(C)C1=O (stereo not drawn) [Compound 119]	6.0
CN1C(=O)C(CC(=O)O)SC1=Nc1cc(-n2c(=O)cc(C(F)(F)F)n(C)c2=O)c(F)cc1Cl (stereo not drawn) [Compound 63]	7.0
C=CCN1C(=O)C(CC(=O)OCCF)SC1=Nc1cc(-n2c(=O)cc(C(F)(F)F)n(C)c2=O)c(F)cc1Cl (stereo not drawn) [Compound 86]	8.0
C=CCN1C(=O)C(CC(=O)NS(C)(=O)=O)SC1=Nc1cc(-n2c(=O)cc(C(F)(F)F)n(C)c2=O)c(F)cc1Cl (stereo not drawn) [Compound 96]	6.0

The measurements presented in this section are drawn from patent US20020137929A1.
